target: HIV-1 Env of DU422.01 (HIV-1); assay: cell-based or functional assay
endpoint_label: neutralization IC50 (µg/mL)
One number for each entry, in µg/mL.

Some entries whose results are on file:
binder: CAP256-VRC26.09 (antibody, V domains shown) VH: EVQLVESGGGVVQPGRSLTLSCAASQFNFANYGMHWVRQAPGKGLEWVASISNDGTKKYHEESVWGRFTISKDNSKSTLFLQMNSLRIEDTALYFCVKDQREDECEEWWSDYYDFGRELPCRKSRGLGLAGIFDMWGHGTMVTVSS VL: QSALTQPPSVSAAPGQKVTISCSGNSSNIGNNFVSWYQQLPGTAPKLLIYENNRRPSGIPDRFSGSKSGTSATLAISGLQTGDEADYWCAVWGVRRGAGAVFGAGTKVTVLG
neutralization IC50 (µg/mL): 0.023
//
binder: CAP256-VRC26.08 (antibody, V domains shown) VH: EVQLVESGGGVVQPGRSLTLSCAASQFTFSNYGMHWVRQAPGKGLEWVASVSNDGTKKYHGDSVWGRFTISRDNSKNTLFLQMSSLRAEDTAVYFCVRDQREDECEEWWSDYYDFGRELPCRKFRGLGLAGIFDIWGHGTMVTVSS VL: QSALTQPPSVSAAPGQKVTISCSGNSSNIGNNFVSWYQQVPGTAPKLLLYETYRRPSGIPDRFSGSKSGTSATLAITGLQTGDEADYYCTVWGVRKGVGAVFGTGTKVTVLG
neutralization IC50 (µg/mL): 0.008

Given CAP256-VRC26.04 (antibody, V domains shown) VH: EVQLVESGGGVVQPGKSLRLSCAASQFSFNRYGMHWVRQAPGKGLEWVAAISYDGTDKYHADKVWGRFTISRDNSKNTLYLQMNSLRAEDTALYYCAKDLREDECEEWWSDYYDFGKQLPCRKSRGVAGIFDKWGQGTMVIVSS VL: QPVLTQPPSVSAAPGQKVTISCSGSSSNIGNNFVSWYQQRPGTAPSLLIYETNKRPSGIPDRFSGSKSATSATLAITGLQTGDEADYYCATWAASLTSARVFGTGTKVIVSG , state its recorded neutralization IC50.
4.17
